- Test system: NCI-H358 cells (express KRas G12C), Phospho-ERK
- experiment_summary: Cellular inhibition of KRas G12C: Phospho-ERK in NCI-H358 cells
- Type: cell-based
- measurement_conditions: Homo sapiens, NCI-H358, 3 h, pERK(Thr202/Tyr204) normalized with GAPDH; NCI-H358 cells; 3 hours; read-out: IC50
- Description: The cellular inhibition of KRAs G12C by exemplary compounds of the present invention was determined by measuring the amount of a downstream marker of KRas activity, phosphorylated ERK (“Phospho-ERK”). […] The amount Phospho-ERK was determined using an antibody specific for the phosphorylated form of ERK and compared to the amount of GAPDH. […] The pERK(Thr202/Tyr204) signal was normalized with the GAPDH signal and percent of DMSO control values were calculated. […]
Below, each entry is listed alongside its reported IC50.
measurement_name: IC50

C=CC(=O)N1CCN(c2nc(OC[C@@H]3CCCN3C)nc3c2CCN(c2cccc4cccc(C(F)(F)F)c24)C3)C[C@@H]1CC#N [Example 433] = 0.0001 to 1 µM
C=CC(=O)N1CCN(c2nc(OC[C@@H]3CCCN3C)nc3c2CCN(c2cccc4cccc(C)c24)C3)C[C@@H]1CC#N [Example 359] = 0.0001 to 1 µM
C=CC(=O)N1CCN(c2nc(OC[C@@H]3C[C@@H](F)CN3C)nc3c2CCN(c2cccc4ccccc24)C3)C[C@@H]1CC#N [Example 306] = 0.0001 to 1 µM
C=CC(=O)N1CCN(c2nc(OCCN3CCCC[C@H]3C)nc3c2CCN(c2cc(O)cc4ccccc24)C3)CC1 [Example 97] = 0.0001 to 1 µM
C=CC(=O)N1CCN(c2nc(OCC3CCN(CC(=O)N(C)C)C3)nc3c2CCN(c2cc(O)cc4ccccc24)C3)CC1 (stereo not shown) [Example 140] = > 1 µM
C=CC(=O)N1CCN(c2nc(N3CCCC3)nc3c2CCN(c2cc(O)cc4ccccc24)C3)CC1 [Example 119] = > 1 µM
C=CC(=O)N1CCN(c2nc(OC[C@H]3CN(C)CCO3)nc3c2CCN(c2cccc4ccccc24)C3)CC1CC#N (stereo partly shown) [Example 270] = 0.0001 to 1 µM
C=CC(=O)N1CCN(c2nc(OC[C@@H]3CCCN3C)nc3c2CCN(c2cccc4ccccc24)C3)C(CC#N)C1 (stereo partly shown) [Example 437] = > 1 µM
C=CC(=O)N1CCN(c2nc(OCCN(C)C)nc3c2CCN(c2cc(O)cc4ccccc24)C3)[C@@H](C)C1 [Example 116] = 0.0001 to 1 µM
C=CC(=O)N1CCN(c2nc(OC[C@@H]3CCCN3C)nc3c2CCN(c2cccc(F)c2C)C3)CC1CC#N (stereo partly shown) [Example 410] = 0.0001 to 1 µM
C=CC(=O)N1CCN(c2nc(OC[C@@H]3CCCN3C)nc3c2CCN(c2cccc4cccc(C)c24)C3)C[C@H]1CC#N [Example 458] = 0.0001 to 1 µM
C=CC(=O)N1CCN(c2nc(OCC3CN(C)CCN3)nc3c2CCN(c2cc(O)cc4ccccc24)C3)CC1 (stereo not shown) [Example 80] = > 1 µM
C=CC(=O)N1CCN(c2nc(OC[C@@H]3CCCN3C)nc3c2CCN(c2cncc(Cl)c2C(F)(F)F)C3)C[C@@H]1CC#N [Example 385] = 0.0001 to 1 µM
C=CC(=O)N1CCN(c2nc(OC[C@H]3CN(C)CCO3)nc3c2CCN(c2cccc4ccccc24)C3)C[C@@H]1CC#N [Example 448] = 0.0001 to 1 µM
C=CC(=O)N1CCN(c2nc(OCCCN3C[C@@H]4C[C@H]3CO4)nc3c2CCN(c2cccc4cccc(C)c24)C3)C[C@@H]1CC#N [Example 369] = 0.0001 to 1 µM
C=CC(=O)N1CCN(c2nc(OC[C@@H]3CCCN3C)nc3c2CCN(c2ccc(F)c4ccccc24)C3)CC1CC#N (stereo partly shown) [Example 246] = 0.0001 to 1 µM
C=CC(=O)N1CCN(c2nc(OC[C@@H]3CCCN3C)nc3c2CCN(c2ncccc2C(F)(F)F)C3)CC1CC#N (stereo partly shown) [Example 373] = > 1 µM
C=CC(=O)N1CCN(c2nc(OC[C@@H]3CC(F)(F)CN3C)nc3c2CCN(c2cccc4cccc(Cl)c24)C3)C[C@@H]1CC#N [Example 366] = 0.0001 to 1 µM
C=CC(=O)N1CCN(c2nc(OCCN3CCC(F)(F)CC3)nc3c2CCN(c2cccc4cccc(Cl)c24)C3)C[C@@H]1CC#N [Example 452] = 0.0001 to 1 µM
C=CC(=O)N1CCN(c2nc(OC[C@@H]3CCCN3C)nc3c2CCN(c2cccc4ccc(F)cc24)C3)CC1CC#N (stereo partly shown) [Example 302] = 0.0001 to 1 µM
C=CC(=O)N1CCN(c2nc(OC[C@@H]3CCCN3C)nc3c2CCN(c2c(F)ccc4ccccc24)C3)CC1CC#N (stereo partly shown) [Example 311] = 0.0001 to 1 µM
C=CC(=O)N1CCN(c2nc(OC[C@@H]3CCCN3CC)nc3c2CCN(c2cccc4ccccc24)C3)CC1CC#N (stereo partly shown) [Example 233] = 0.0001 to 1 µM
